Tested on: human skin tissue
Assay Comment: Penetration rate of AI compound in AI-helper composition through human skin in vitro, modified Franz cells
Format: in vitro ADME
Study Conditions: with L-leucine isopropyl ester hydrochloride 6 % w/v in water; AI compound 0.5 % w/v; 25 °C
Recorded Endpoint: Skin penetration rate of AI compound (μg/cm^2/h)

Molecule	Measured Number
CC1=C(/C=C/C(C)=C/C=C/C(C)=C/C=C/C=C(C)/C=C/C=C(C)/C=C/C2=C(C)CCCC2(C)C)C(C)(C)CCC1	9.252
Oc1ccc(C=Cc2cc(O)cc(O)c2)cc1	16.126
NCCS(=O)(=O)O	7.175
Nc1nc2ncc(CNc3ccc(C(=O)N[C@@H](CCC(=O)O)C(=O)O)cc3)nc2c(=O)[nH]1	5.786
O=C1O[C@H]([C@@H](O)CO)C(O)=C1O	8.378
CC1=C(/C=C/C(C)=C/C=C/C(C)=C/C=C/C=C(C)/C=C/C=C(C)/C=C/C2=C(C)C(=O)[C@@H](O)CC2(C)C)C(C)(C)C[C@H](O)C1=O	11.251
N[C@@H](CCC(=O)N[C@@H](CS)C(=O)NCC(=O)O)C(=O)O	14.128
O=C(O)CCCCC1CCSS1 (centres unmarked)	28.377

====

Assay Comment: Transdermal delivery of melatonin: plasma level of melatonin after applying composition to skin of a subject
Study Conditions: human, plasma, topical, Plasma level of melatonin, salt of tyrosine isopropyl ester, A− = I^−, 199.43 mM, 0.30 mL applied, 4 hr after transdermal administration
Recorded Endpoint: concentration at 4 h (ng/mL)

Compound String	Recorded Endpoint	Measured Number
COc1ccc2[nH]cc(CCNC(C)=O)c2c1	concentration at 4 h	2.3

====

Assay Comment: Transdermal delivery of melatonin: plasma level of melatonin after applying composition to skin of a subject
Study Conditions: human, plasma, topical, 3 mg, Plasma level of melatonin, Isoleucine hexyl ester 278.04 mM, 0.60 mL applied to skin, 0 hr after transdermal administration
Recorded Endpoint: concentration at 0 hr (ng/mL)

Compound String	Measured Number
COc1ccc2[nH]cc(CCNC(C)=O)c2c1	0

====

Assay Comment: Transdermal delivery of melatonin: plasma level of melatonin after applying composition to skin of a subject
Study Conditions: human, plasma, topical, Plasma level of melatonin, salt of tryptophan isopropyl ester, A− = Lactate ion, 208.11 mM, 0.30 mL applied, 8 hr after transdermal administration
Recorded Endpoint: concentration at 8 h (ng/mL)

Molecule	Recorded Endpoint	Measured Number
COc1ccc2[nH]cc(CCNC(C)=O)c2c1 [Melatonin]	concentration at 8 h	1.8

====

Assay Comment: Transdermal delivery of melatonin: plasma level of melatonin after applying composition to skin of a subject
Study Conditions: human, plasma, topical, Plasma level of melatonin, 6-(Dimethylamino)hexyl 2-acetoxybenzoate hydrochloride 203.56 mM, 0.375 mL applied to skin, 2 hr after transdermal administration
Recorded Endpoint: concentration at 2 h (ng/mL)

Compound String	Measured Number
COc1ccc2[nH]cc(CCNC(C)=O)c2c1	2.1

====

Assay Comment: Transdermal delivery of melatonin: plasma level of melatonin after applying composition to skin of a subject
Study Conditions: human, plasma, topical, Plasma level of melatonin, salt of tyrosine isopropyl ester, A− = Cl^−, 269.51 mM, 0.30 mL applied, 8 hr after transdermal administration
Recorded Endpoint: concentration at 8 h (ng/mL)

Compound String	Measured Number
COc1ccc2[nH]cc(CCNC(C)=O)c2c1	2.8
